target: T1, rhNav1.7α + β1-β2-β3 (rhesus monkey)
T1 construct: also called rhNav1.7-beta1-beta2-beta3; rhesus Nav1.7α
test-name: binding FACS, CHO FlpIn cells
measured-metric: EC50 (nM)

For orientation, consider the following solved cases.
{"columns": ["binder", "unit-info", "EC50"],
 "data": [
  ["F010302355 (VHH) VHH: EVQLVESGGGVVQPGGSLRLSCAASHRAFIRDVFTGWYRRAPGKQRELVARIYEGGNTQYADSVKGRFTISRDNAKKTVYLQMNSLRPEDTALYYCLFSGTISTGREYRSGDYWGQGTLVTVSS", "nM", 6.8],
  ["F010302360 (VHH) VHH: EVQLVESGGGVVQPGGSLRLSCAASHRQFIRDVFTGWYRQAPGKQRELVARIYNEGNTQYADSVKGRFTISRDNAKKTVYLQMNSLRPEDTALYYCLFSGTISTGREYRSGDYWGQGTLVTVSS", "nM", 15],
  ["F010302352 (VHH) VHH: EVQLVESGGGVVQPGGSLRLSCAASHRQFIRDVFTGWYRRAPGKQRELVARIYNEGNTQYADSVKGRFTISRDNAKKTVYLQMNSLRPEDTALYYCLFSGTISTGREYRSGDYWGQGTLVTVSS", "nM", 11],
  ["F010302336 (VHH) VHH: EVQLVESGGGVVQPGGSLRLSCAASHRQFIRDVFTGWYRRAPGKQRELVARIYNEGNTQYADSAKGRFTISRDNAKKTVYLQMNSLRPEDTALYYCLFSGTISTGREYRSGDYWGQGTLVTVSS", "nM", 9.7],
  ["F010302346 (VHH) VHH: EVQLVESGGGVVQPGGSLRLSCAASHRAFIRDVFTGWYRQAPGKQRELVARIYESGNTQYADSAKGRFTISRDNAKKTVYLQMNSLRPEDTALYYCLFSGTISTGREYRSGDYWGQGTLVTVSS", "nM", 12]
]}

(I) F010302361 (VHH) VHH: EVQLVESGGGVVQPGGSLRLSCAASHRQFIRDVFTGWYRQAPGKQRELVARIYEGGNTQYADSVKGRFTISRDNAKKTVYLQMNSLRPEDTALYYCLFSGTISTGREYRSGDYWGQGTLVTVSS
(II) F010301887 (VHH, R31Q vs F0103464B09 (Kabat)) VHH: EVQLVESGGGLVQPGGSLRLSCATTSRAFIQDVFTGWYRRVPGKERELVARIYNGGNTNYADFAKGRFSISRDNAKKMVTLRMSNLKPEDTGVYYCLFSGTINTGREYRSGDYWGQGTLVTVSS
Inquiry: Larger number for EC50: I , or II ? Please indicate the selected item by its label.
Reply text: II
(II: 59 nM, I: 11 nM)
